This collection of values is drawn from ChEMBL document CHEMBL4342489.

- Measured target: Sodium channel protein type 1 subunit alpha (Homo sapiens) (UniProt P35498)
- Experiment summary: Activation of human Nav1.1 expressed in HEK293 cells assessed as ratio of compound activation AUC to baseline activation AUC at 0.37 uM at -120 mV holding potential by Qpatch assay
- Format: cell-based
Residues, ends and D or L forms follow the SMILES beside them.
Readout name: Ratio AUC

Previously resolved entries follow.
Compound	Ratio AUC
CC[C@H](C)[C@H](NC(=O)[C@H](CCCCN)NC(=O)[C@@H](NC(=O)[C@@H](N)CCCNC(=N)N)[C@@H](C)CC)C(=O)NCC(=O)N[C@@H](CC(C)C)C(=O)N[C@@H](Cc1ccccc1)C(=O)N[C@@H](CC(=O)O)C(=O)N[C@@H](CCC(N)=O)C(=O)N[C@@H](CC(C)C)C(=O)N[C@@H](CO)C(=O)N[C@@H](CCCNC(=N)N)C(=O)N[C@@H](CC(C)C)C(N)=O (H-RIKIGLFDQLSRL-NH2)	1
CC[C@H](C)[C@H](NC(=O)[C@@H](N)CCCNC(=N)N)C(=O)N[C@@H](CCCCN)C(=O)N[C@H](C(=O)N1CCC[C@@H]1C(=O)N[C@@H](CC(C)C)C(=O)N[C@@H](Cc1ccccc1)C(=O)N[C@@H](CC(=O)O)C(=O)N[C@@H](CCC(N)=O)C(=O)N[C@@H](CC(C)C)C(=O)N[C@@H](CO)C(=O)N[C@@H](CCCNC(=N)N)C(=O)N[C@@H](CC(C)C)C(N)=O)[C@@H](C)CC	1.1

Next compound, Ratio AUC to be filled in.
// returns reported Ratio AUC for input CC[C@H](C)[C@H](NC(=O)[C@H](CCCNC(=N)N)NC(=O)[C@@H](NC(=O)[C@@H](N)CCCNC(=N)N)[C@@H](C)CC)C(=O)NCC(=O)N[C@@H](CC(C)C)C(=O)N[C@@H](Cc1ccccc1)C(=O)N[C@@H](CC(=O)O)C(=O)N[C@@H](CCC(N)=O)C(=O)N[C@@H](CC(C)C)C(=O)N[C@@H](Cc1c[nH]c2ccccc12)C(=O)N[C@@H](CCCNC(=N)N)C(=O)N[C@@H](CC(C)C)C(N)=O (H-RIRIGLFDQLWRL-NH2)
1.6
